Target: PTP1B (Homo sapiens)
endpoint-label: pIC50
In simple prose, pIC50 is minus the logarithm base ten of a concentration in moles per litre.

Look up and report pIC50, with PTP1B (Homo sapiens) as system, for CC1=C(/C=C/C(C)=C/C=C/C(C)=C\C(=O)O)C(C)(C)CCC1 [3a, 13‐cis‐retinoic acid] 4.36

* * *

Biological target: UniProtKB P18031
Sequence (P18031 1-435): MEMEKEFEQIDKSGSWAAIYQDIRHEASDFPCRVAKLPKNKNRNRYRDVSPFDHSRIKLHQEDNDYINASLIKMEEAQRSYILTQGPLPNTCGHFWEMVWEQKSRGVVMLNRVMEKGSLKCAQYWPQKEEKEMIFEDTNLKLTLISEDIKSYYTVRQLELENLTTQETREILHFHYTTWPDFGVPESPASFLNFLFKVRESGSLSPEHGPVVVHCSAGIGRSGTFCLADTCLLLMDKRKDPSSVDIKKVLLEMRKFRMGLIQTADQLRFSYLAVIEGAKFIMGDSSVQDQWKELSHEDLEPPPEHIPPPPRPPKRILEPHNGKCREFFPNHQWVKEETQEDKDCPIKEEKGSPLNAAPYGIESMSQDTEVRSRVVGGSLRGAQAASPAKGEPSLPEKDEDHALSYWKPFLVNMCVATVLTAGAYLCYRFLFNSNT
endpoint-label: pKi
In simple prose, pKi is minus the logarithm base ten of a concentration in moles per litre.

Look up and report pKi, with UniProtKB P18031 as system, for CC1=C(/C=C/C(C)=C/C=C/C(C)=C\C(=O)O)C(C)(C)CCC1 [3a, 13‐cis‐retinoic acid] 4.63
